Read-out: Alpha-fetoprotein (AFP) gene, AFP (gene 174)
assay-comment: LTEA_HepaRG_AFP: Life Technologies and Expression Analysis (LTEA) Assay for Alpha-fetoprotein (AFP) gene using HepaRG (AID 2283472)
run-conditions: mRNA level, 48 h; actives raise or lower the signal
Activity calls are given as the source filed them. How the source made its calls: active means hit-call score of the fitted dose curve at least 0.9, where 1 is the maximum; inactive means score below 0.9.
Possible outcomes: yes = active, no = inactive

>  <compound>
O=[N+]([O-])c1ccc(O)cc1

>  <discrete-label>
no

$$$$
>  <compound>
CCCCOCCO

>  <discrete-label>
no

$$$$
>  <compound>
N#C[C@@H]1CC(F)(F)CN1C(=O)CNC1CC2CCC(C1)N2c1ncccn1 (some centres not stated)

>  <discrete-label>
no

$$$$
>  <compound>
CCC(=C(c1ccc(O)cc1)c1ccc(OCCN(C)C)cc1)c1ccccc1

>  <discrete-label>
no

$$$$
>  <compound>
CC(C)(C)c1cc(C(C)(C)C)c(O)c(C(C)(C)C)c1

>  <discrete-label>
yes

$$$$
>  <compound>
Oc1cccc(O)c1

>  <discrete-label>
no

$$$$
>  <compound>
CCN(CC)CCNc1ccc(CNC=O)c2sc3ccc(OC)cc3c(=O)c12

>  <discrete-label>
yes

$$$$
>  <compound>
CCCCCCCCC(=O)O

>  <discrete-label>
no

$$$$
>  <compound>
CCCCC(CC)COC(=O)CCCCC(=O)OCC(CC)CCCC (configuration not stated)

>  <discrete-label>
no

$$$$
>  <compound>
CC1=C(/C=C/C(C)=C/C=C/C(C)=C/C(=O)O)C(C)(C)CCC1

>  <discrete-label>
yes

$$$$
>  <compound>
CCCCCCCCCCCCN1CCCC1=O

>  <discrete-label>
no

$$$$
>  <compound>
CC#C[C@]1(O)CC[C@H]2[C@@H]3CCC4=CC(=O)CCC4=C3[C@@H](c3ccc(N(C)C)cc3)C[C@@]21C

>  <discrete-label>
yes

$$$$
